# Read-out: Macrophage colony-stimulating factor (MCSF), CSF1 (gene 1435)
# Experiment Description: BSK_hDFCGF_MCSF: BioMAP Diversity Plus: hDFCGF Assay for Macrophage colony-stimulating factor (MCSF) Biomarker Activity (AID 2283060)
# Measurement Context: primary human foreskin fibroblasts; actives raise or lower the signal
The source made the active and inactive calls. Rule for the calls: active = hit-call score of the fitted dose curve at least 0.9, where 1 is the maximum; inactive = score below 0.9.
Allowed answers: active, inactive

INSERT INTO results (compound, label_value) VALUES
  ('CCOP(=S)(OCC)Oc1ccc2c(C)c(Cl)c(=O)oc2c1', 'active');

### Prompt Please indicate how the test categorized CC(C)[C@H](C(=O)O[C@H](C#N)c1cccc(Oc2ccccc2)c1)c1ccc(Cl)cc1 .
### Response inactive

### Prompt Moving on to the next compound: COP(=O)(NC(C)=O)SC (stereo not given)
### Response inactive

### Prompt Moving on to the next compound: CN1COCN(Cc2cnc(Cl)s2)C1=N[N+](=O)[O-]
### Response inactive

### Prompt Moving on to the next compound: CC(COc1ccc(Oc2ccccc2)cc1)Oc1ccccn1 (stereo not given)
### Response inactive
